All values here come from patent US20250188092A1.

Entries and their MIC90 LORA/MABA
- Tested on: non-replicating cultures of M. tuberculosis H37Rv transformed with lux ABCDE
- ASSAY_PROCEDURE: microbe, parasite or virus in culture
- Assay type: cell-based, Mycobacterium tuberculosis
- CONDITION_SET: ratio of LORA MIC90 to MABA MIC90
Reply: number alone, nothing else.

Illustrative cases are given below, each with its answer.
* CO[C@H]1/C=C/O[C@@]2(C)Oc3c(C)c(O)c4c(=O)c(c5oc6cc(N7CCOC(CN(C)C)C7)cc(OCc7ccc(CN8CCOCC8)cc7)c6nc-5c4c3C2=O)NC(=O)/C(C)=C\C=C\[C@H](C)[C@H](O)[C@@H](C)[C@@H](O)[C@@H](C)[C@H](OC(C)=O)[C@@H]1C (stereo partly shown) [Compound 17o] | 19
* CCC(=O)N1CCN(c2cc(OCc3ccc(CN4CCOCC4)cc3)c3nc4c5c6c7c(C)c(O)c5c(=O)c(c-4oc3c2)NC(=O)/C(C)=C\C=C\[C@H](C)[C@H](O)[C@@H](C)[C@@H](O)[C@@H](C)[C@H](OC(C)=O)[C@H](C)[C@@H](OC)/C=C/O[C@@](C)(O7)C6=O)CC1 [Compound 17g] | 5.4

Ask: Which value of MIC90 LORA/MABA has been reported for CO[C@H]1/C=C/O[C@@]2(C)Oc3c(C)c(O)c4c(=O)c(c5oc6cc(C)cc(N7CCN(C(=O)c8cccc(-n9ccnc9)c8)CC7)c6nc-5c4c3C2=O)NC(=O)/C(C)=C\C=C\[C@H](C)[C@H](O)[C@@H](C)[C@@H](O)[C@@H](C)[C@H](OC(C)=O)[C@@H]1C [Compound 30f] in the records?
Reply: 2.7

Ask: # input molecule: CCOC(=O)N1CCN(c2cc(C)c3nc4c5c6c7c(C)c(O)c5c(=O)c(c-4oc3c2)NC(=O)/C(C)=C\C=C\[C@H](C)[C@H](O)[C@@H](C)[C@@H](O)[C@@H](C)[C@H](OC(C)=O)[C@H](C)[C@@H](OC)/C=C/O[C@@](C)(O7)C6=O)CC1 [Compound 26h] ; wanted: its MIC90 LORA/MABA
Reply: 1.9

Ask: Sample CO[C@H]1/C=C/O[C@@]2(C)Oc3c(C)c(O)c4c(=O)c(c5oc6cc(N7CCN(CC(C)C)CC7)cc(OCc7ccc(CN8CCOCC8)cc7)c6nc-5c4c3C2=O)NC(=O)/C(C)=C\C=C\[C@H](C)[C@H](O)[C@@H](C)[C@@H](O)[C@@H](C)[C@H](OC(C)=O)[C@@H]1C [Compound 17e] — what was its MIC90 LORA/MABA?
Reply: 1.9

Ask: Return reported MIC90 LORA/MABA; argument: CO[C@H]1/C=C/O[C@@]2(C)Oc3c(C)c(O)c4c(=O)c(c5oc6cc(N7CCN(C(=O)c8ccc(-c9ccc(C(N)=O)cc9)cc8)CC7)cc(OCc7ccc(CN8CCOCC8)cc7)c6nc-5c4c3C2=O)NC(=O)/C(C)=C\C=C\[C@H](C)[C@H](O)[C@@H](C)[C@@H](O)[C@@H](C)[C@H](OC(C)=O)[C@@H]1C [Compound 17t]
Reply: 1.8

Ask: Entry under review: CO[C@H]1/C=C/O[C@@]2(C)Oc3c(C)c(O)c4c(=O)c(c5oc6cccc(OCc7cccc(CN8CCN(C(=O)Cc9ccccc9)CC8)c7)c6nc-5c4c3C2=O)NC(=O)/C(C)=C\C=C\[C@H](C)[C@H](O)[C@@H](C)[C@@H](O)[C@@H](C)[C@H](OC(C)=O)[C@@H]1C [Compound 11g] . Reported MIC90 LORA/MABA?
Reply: 12
